Where do the numbers come from? From patent US6169181A.

target: HIV-1 protease (Human immunodeficiency virus type 1 group M subtype B, UniProt P04585); experiment: biochemical; conditions: Table I; Dose 3.300 μM; read-out: Protease % Inhib
Structures can show the parent of a compound that is named as a salt.
Would you mind telling me the reported inhibition at 3.3 µM of each entry?
Your answer should be a plain number; it is taken to be in %.

Query: Look up inhibition at 3.3 µM: CC(C)(C)C(C1=C(O)CC(CCC2CC2)(CCC2CC2)OC1=O)c1cccc(NS(=O)(=O)c2ccc(C#N)cn2)c1 (stereo not drawn) [Example 265]
Result: 63.7

Query: Now this one: CCCC1(CCC)CC(O)=C(C(CC)c2cccc(NS(=O)(=O)c3ccc(F)cc3)c2)C(=O)O1 (stereo not drawn) [Example 45]
Result: 103

Query: Param item: Cn1cnc(S(=O)(=O)Nc2cccc(C(C3=C(O)CC(CCc4ccccc4)(CCc4ccccc4)OC3=O)C3CC3)c2)c1 (stereo not drawn) [Example 62]
Result: 78.7

Query: Also CN(c1cccc(C(c2c(O)c3c(oc2=O)CCCCCC3)C2CC2)c1)S(=O)(=O)c1ccc(C#N)cc1 (stereo not drawn) [Example 192] , if possible.
Result: 96.9

Query: Then what about the compound CCCC1(CCC)CC(O)=C(C(CC)c2cccc(NS(=O)(=O)c3cn(C)cn3)c2)C(=O)O1 (stereo not drawn) [Example 44] ?
Result: 113

Query: Here is the next compound: Cn1ccnc1S(=O)(=O)Cc1cccc(C(c2c(O)c3c(oc2=O)CCCCCC3)C2CC2)c1 (stereo not drawn) [Example 15]
Result: 94

Query: Follow-up entry: O=c1oc(C(CC2CC2)CC2CC2)cc(O)c1C(c1cccc(NS(=O)(=O)c2ccc3ccccc3n2)c1)C1CC1 (stereo not drawn) [Example 103]
Result: 100

Query: Then what about the compound CC[C@H](Cc1ccccc1)c1cc(O)c(C(c2cccc(NS(=O)(=O)c3ccc(C#N)cc3)c2)C2CC2)c(=O)o1 (single isomer, unassigned) [Example 148] ?
Result: 90

Query: Now try CC[C@@H](Cc1ccccc1)c1cc(O)c(C(c2cccc(NS(=O)(=O)c3cn(C)cn3)c2)C2CC2)c(=O)o1 (single isomer, unassigned) [Example 139] .
Result: 99.3

Query: Please answer likewise for CC[C@H](Cc1ccccc1)c1cc(O)c(C(c2cccc(NS(=O)(=O)c3cn(C)cn3)c2)C2CC2)c(=O)o1 (single isomer, unassigned) [Example 138]
Result: 99.6

Query: Do the same for COCCOCCOCCOc1ccc2c(O)c(C(c3cccc(NS(=O)(=O)c4cccc5cccnc45)c3)C3CC3)c(=O)oc2c1 (stereo not drawn) [Example 153] please
Result: 104

Query: Continue with CCCC1(CCC)CC(O)=C(C(c2cccc(NS(=O)(=O)c3ccc(F)cc3)c2)C2CC2)C(=O)O1 (stereo not drawn) [Example 51]
Result: 101

Query: Can you handle N#Cc1ccc(S(=O)(=O)Cc2cccc(C(c3c(O)c4c(oc3=O)CCCCCC4)C3CC3)c2)cc1 (stereo not drawn) [Example 11] next?
Result: 95.1

Query: For CN(c1cccc(C(c2c(O)c3c(oc2=O)CCCCCC3)C2CC2)c1)S(=O)(=O)c1ccc(F)cc1 (stereo not drawn) [Example 193] then?
Result: 98.1

Query: Can you check CCC(CCNS(=O)(=O)c1cn(C)cn1)c1cc(O)c(C(c2cccc(NS(=O)(=O)c3cn(C)cn3)c2)C2CC2)c(=O)o1 (stereo not drawn) [Example 107] next?
Result: 103

Query: // next record CCC(CCNC(=O)CCCCCCC(=O)N(C)CCS(=O)(=O)O)c1cc(O)c(C(c2cccc(NS(=O)(=O)c3cn(C)cn3)c2)C2CC2)c(=O)o1 (stereo not drawn) [Example 110, monosodium salt]
Result: 99.1

Query: What about CCCCCC1(CCCCC)CC(O)=C(C(CC)c2cccc(NS(=O)(=O)c3ccc(C#N)cc3)c2)C(=O)O1 (stereo not drawn) [Example 64] ?
Result: 80.9

Query: Would you mind doing O=c1oc(C(CC2CC2)CC2CC2)cc(O)c1C(c1cccc(NS(=O)(=O)c2ccccn2)c1)C1CC1 (stereo not drawn) [Example 99] as well?
Result: 100

Query: Ok, now CC[C@H](Cc1ccccc1)c1cc(O)c(C(c2cccc(NS(=O)(=O)c3ccccn3)c2)C2CC2)c(=O)o1 (single isomer, unassigned) [Example 141]
Result: 88.3

Query: Same again, this time with O=c1oc(C(CC2CC2)CC2CC2)cc(O)c1C(c1cccc(NS(=O)(=O)c2nc3ccccc3[nH]2)c1)C1CC1 (stereo not drawn) [Example 101]
Result: 97

Query: Lookup O=c1oc2c(c(O)c1C(c1cccc(NS(=O)(=O)c3ccccn3)c1)C1CC1)CCCCCC2 (stereo not drawn) [Example 239]
Result: 99.5

Query: Subsequent entry: O=c1oc(C(CC2CC2)CC2CC2)cc(O)c1C(c1cccc(NS(=O)(=O)c2cccc3cccnc23)c1)C1CC1 (stereo not drawn) [Example 96]
Result: 111

Query: Would you mind doing CCCC1CCCCCc2c1oc(=O)c(C(c1cccc(NS(=O)(=O)c3ccccc3)c1)C1CC1)c2O (stereo not drawn) [Example 1] as well?
Result: 96.8

Query: And CCC(C1=C(O)CC(CC(C)C)(CC(C)C)OC1=O)c1cccc(NS(=O)(=O)c2cn(C)cn2)c1 (stereo not drawn) [Example 47] ?
Result: 101

Query: Next compound: CCC(CC1CCOCC1)c1cc(O)c(C(c2cccc(NS(=O)(=O)c3nccn3C)c2)C2CC2)c(=O)o1 (stereo not drawn) [Example 145]
Result: 94.8

Query: Same again, this time with CCCC1(CCc2ccccc2)CC(O)=C(C(c2cccc(NS(=O)(=O)c3cn(C)cn3)c2)C2CC2)C(=O)O1 (stereo not drawn) [Example 61]
Result: 103

Query: What about this compound? CCC(CCOCCOC)c1cc(O)c(C(c2cccc(NS(=O)(=O)c3ccc(C#N)cc3)c2)C2CC2)c(=O)o1 (stereo not drawn) [Example 106]
Result: 98.9
